- measurement_target: hα7-wt nAChR (Homo sapiens)
- Construct: expressed in transfected cells
- Sequence (P36544 23-502): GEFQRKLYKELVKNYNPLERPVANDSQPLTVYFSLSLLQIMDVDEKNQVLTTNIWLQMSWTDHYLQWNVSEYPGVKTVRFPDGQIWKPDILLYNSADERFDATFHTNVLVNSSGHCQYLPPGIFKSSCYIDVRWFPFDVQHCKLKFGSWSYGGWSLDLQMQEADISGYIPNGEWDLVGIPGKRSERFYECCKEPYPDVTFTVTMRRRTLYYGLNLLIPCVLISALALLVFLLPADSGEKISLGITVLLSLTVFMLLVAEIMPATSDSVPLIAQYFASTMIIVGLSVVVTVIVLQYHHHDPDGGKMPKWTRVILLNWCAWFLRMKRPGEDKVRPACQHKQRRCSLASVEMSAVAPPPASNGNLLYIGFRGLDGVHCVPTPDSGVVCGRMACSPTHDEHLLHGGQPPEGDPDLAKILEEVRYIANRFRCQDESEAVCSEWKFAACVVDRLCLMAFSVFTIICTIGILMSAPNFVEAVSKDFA
- protocol_description: Ca2+ flux imaging (FDSS) (Protocol B), PAM activity with choline as agonist
- Type: cell-based
- setup_conditions: "<5" = no top plateau at maximal concentration
outcome_measure: EC50 (nM)
Answers are plain numbers, in nM.

Observe how each entry below is paired with its result.
- molecule: "CN(C)C(=O)CCn1nc(Nc2cccc(OC(F)(F)F)c2)nc1-c1ccncc1 [Compound 168]"
  measurement_target: "hα7-wt nAChR (Homo sapiens)"
  measured_result: 501
- molecule: "CCNC(=O)Cn1nc(Nc2cccc(OC(F)(F)F)c2)nc1-c1ccc2c(c1)OCCO2 [Compound 158]"
  measurement_target: "hα7-wt nAChR (Homo sapiens)"
  measured_result: 158
- molecule: "CC(C)c1ccc(-c2nc(Nc3ccc(F)c(C(F)(F)F)c3)nn2CCC(=O)N(C)C)cn1 [Compound 129]"
  measurement_target: "hα7-wt nAChR (Homo sapiens)"
  measured_result: 39.8
- molecule: "CNC(=O)Cn1nc(Nc2cc(F)c(F)c(F)c2)nc1-c1ccnc(NC)c1 [Compound 36]"
  measurement_target: "hα7-wt nAChR (Homo sapiens)"
  measured_result: 2510

# per-item lookup of EC50; items listed below
1. NC(=O)Cn1nc(Nc2cccc(C(F)(F)F)c2)nc1-c1ccc2c(c1)OCCO2 [Compound 21]
2. CNc1cc(-c2nc(Nc3ccc(F)c(C(F)(F)F)c3)nn2CCc2noc(C)n2)ccn1 [Compound 37]
3. CNC(=O)Cn1nc(Nc2cccc(OC(F)(F)F)c2)nc1-c1ccncc1NC [Compound 153]
4. CNC(=O)Cn1nc(Nc2cc(OC)cc(C(F)(F)F)c2)nc1-c1ccnc(NC)c1 [Compound 146]
5. CN(C)C(=O)CCn1nc(Nc2cccc(F)c2)nc1-c1ccc2c(c1)OCCO2 [Compound 194]

1260
1260
1580
1000
316

* * *

- measurement_target: hα7-wt nAChR (Homo sapiens)
- Construct: expressed in transfected cells
- protocol_description: Ca2+ flux imaging (FLIPR) (Protocol A), PAM activity with choline as agonist
- Format: cell-based
- setup_conditions: "<5" = no top plateau at maximal concentration
Would you kindly list pEC50 for each of these compounds?
Answers are plain numbers, as −log10 of the molar value.

- compound: "CC(O)Cn1nc(Nc2cccc(OC(F)(F)F)c2)nc1-c1ccc(C2CC2)nc1 (centres unmarked) [Compound 150]"
  pEC50: 5.40

Attention now turns to another entry.
Form entry - test system: hα7-wt nAChR (Homo sapiens); read-out: pEC50; compound: CN(C)C(=O)CCn1nc(N(C)c2ccc(F)c(C(F)(F)F)c2)nc1-c1ccc2c(c1)OCCO2 [Compound 135]
5.50

* * *

For each of the compounds below, state its melting point.

# annotated cases, reported melting point shown
- compound: "COc1cc(OC)c(Nc2nc(-c3ccncc3)n(CCO)n2)cc1Cl [Compound 15]"
  melting point: "207.2 to 207.9 °C"
- compound: "OCCn1nc(Nc2cccc(C(F)(F)F)c2)nc1-c1ccncc1 [Compound 2]"
  melting point: "179.1 to 180 °C"

Consider the record given below.
Which measured melting point value corresponds to COc1cccc(-c2nc(Nc3cccc(OC(F)(F)F)c3)nn2CC(=O)NC2CC2)c1 [Compound 162] ?
196.5 to 206.2 °C
